# Test system: Saccharomyces cerevisiae
# procedureSummary: protein stability index of tFT-peptide fusion (C-terminal peptide) (PSI (0-1 scale)); higher = more stable (slower turnover)
# conditionDescription: genetic background: doa10 deletion; temperature: 30 C
Here the recorded protein stability index is given for each entry.
The answer should be written as a number, with no unit following it.

Q: Identify the measured protein stability index of `GLLVFRCINLRC` for Saccharomyces cerevisiae.
Result: 0.421

Q: Identify the measured protein stability index of `QCKHIVRKIKLH` for Saccharomyces cerevisiae.
Result: 0.117

---

# Tested on: Saccharomyces cerevisiae
# procedureSummary: protein stability index of tFT-peptide fusion in wild type (PSI (0-1 scale)); higher = more stable (slower turnover)
# conditionDescription: genetic background: wild type
measurementLabel: protein stability index
The answer should be written as a number, with no unit following it.

Reference set (5 entries):
1) LKILRQKMNHPN :: 0.672
2) CLVELPILLFFR :: 0.0526
3) RSKRVLLPLYFR :: 0.362
4) NRWRVGLWRGAS :: 0.454
5) VRGAVGGWRLKG :: 0.607

Switching to the query record.
Q: # input sequence: `KCHKKGQKQKIN` ; wanted: its protein stability index
Result: 0.342
